# System: actin capping protein (CP), chicken α1/β1, CP_full (chicken, UniProt P13127 1-286; P14315 1-277)
# Run description: SPR; GST-fusion protein (GST-V-1, GST-CA or GST-CD) immobilised on a CM5 chip via anti-GST antibodies (up to 200 RU), CP perfused at 20 µl/min; 20°C; 50 mM KCl, 1 mM MgCl2, 0.005% Tween-20, 10 mM imidazole pH 7.0; 1:1 fit, KD from the kinetic rate constants (steady state for several fast-dissociating mutants)
# Assay setup: both partners purified
pKd: −log10 of the molar value.
Measure name: pKd

Some solved cases for reference:
FDSLTVRTSKETDVVNFDDIASSENLLHLTANRPKMPGRRLPGR (domain or fragment, CD2AP, human, residues 461–504; cloned into pGEX-6P-1) [GST-CD44] :: 7.21
FDSLTVRTSKETDVVNFDDIASSENLLHLTANRPKMPGRRLPGRFNG (domain or fragment, CD2AP, human, residues 461–507; cloned into pGEX-6P-1) [GST-CD47] :: 7.74

1: GST-CA76 (domain or fragment, CARMIL, mouse, residues 962–1037) FPSVRQEKRSSGLISELPSEEGRRLEHFTKLRPKRNKKQQPTQAAVCTISILPQDGEQNGLMGRVDEGVDEFFTKK
2: GST-CA92 (domain or fragment, CARMIL, mouse, residues 962–1053) FPSVRQEKRSSGLISELPSEEGRRLEHFTKLRPKRNKKQQPTQAAVCTISILPQDGEQNGLMGRVDEGVDEFFTKKVTKMDCKRSSSRSSDA
[ask] Select one: 1 or 2 . Criterion: greater recorded pKd. Could you answer with the label of the item you picked?
[reply] 2
(2: 8.48, 1: 7.10)
